src = the RNAGym collection of RNA variant scans (doi:10.1073/pnas.2313332121)

B1: TPR t1 (parent)
chain: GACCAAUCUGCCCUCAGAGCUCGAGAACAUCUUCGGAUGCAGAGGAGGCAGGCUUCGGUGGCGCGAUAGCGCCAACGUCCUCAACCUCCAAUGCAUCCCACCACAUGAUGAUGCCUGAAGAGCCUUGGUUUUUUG

Variants of: B1
Assay: polymerase ribozyme fitness, log enrichment relative to wild type (log ratio); higher = more active; in vitro selection for triplet polymerase activity
Binning rule for recorded polymerase ribozyme fitness (log ratio): lower band = under -3, central band = from -3 up to -2, upper band = -2 and over

Below are worked cases with known answers.
C80A U96C C115A :: lower band
C8U G57U G110U :: upper band
C56A G93U :: central band

INPUT: Hey, which category is C8U C22G G45A G47C A100U in, do you know?
OUTPUT: lower band

INPUT: Hey, which category is A5C C12A in, do you know?
OUTPUT: upper band

INPUT: Hey, which category is A37U U106C A119G in, do you know?
OUTPUT: upper band

INPUT: Hey, which category is A5U C72U G128U in, do you know?
OUTPUT: central band

INPUT: Hey, which category is C101A G110A C123A in, do you know?
OUTPUT: lower band
